# measurement_setup: human gut metagenome, 24 h, 2 µM; also: call rule not given here
measure_name: Bacterial Biotransformation

>>> result("CN(C)CCc1c[nH]c2ccc(CS(=O)(=O)N3CCCC3)cc12")
"Compound NOT metabolized"
>>> result("CCS(=O)(=O)CCn1c([N+](=O)[O-])cnc1C")
"Compound metabolized"
>>> result("CCCN1C[C@H](CSC)C[C@@H]2c3cccc4[nH]cc(c34)C[C@H]21.CS(=O)(=O)O [PERGOLIDE MESYLATE]")
"Compound NOT metabolized"
>>> result("CC(=O)OCC(CCn1cnc2cnc(N)nc21)COC(C)=O")
"Compound metabolized"
>>> result("COc1ccccc1OCCNCC(O)COc1cccc2[nH]c3ccccc3c12 (centres undefined)")
"Compound metabolized"
>>> result("CCOc1ccccc1OCCN[C@H](C)Cc1ccc(OC)c(S(N)(=O)=O)c1.Cl [TAMSULOSIN HYDROCHLORIDE]")
"Compound NOT metabolized"
>>> result("CC(=O)Nc1ccc(OC(C)=O)cc1 [DIACETAMATE]")
"Compound metabolized"
>>> result("CC(=O)Oc1ccc(C(c2ccc(OC(C)=O)cc2)c2ccccn2)cc1")
"Compound metabolized"
>>> result("COc1ccc(CN2CCNCC2)c(OC)c1OC.Cl.Cl [TRIMETAZIDINE DIHYDROCHLORIDE]")
"Compound NOT metabolized"

----------
# measurement_setup: human gut metagenome, 24 h, 2 µM
measure_name: Bacterial Biotransformation

>>> result("COc1cc(C(=O)NCc2ccc(OCCN(C)C)cc2)cc(OC)c1OC [TRIMETHOBENZAMIDE]")
"Compound NOT metabolized"
>>> result("CCOC(=O)[C@H](CCc1ccccc1)N[C@@H](C)C(=O)N1Cc2ccccc2C[C@H]1C(=O)O")
"Compound NOT metabolized"
>>> result("CCCCCNC(=N)N/N=C/c1c[nH]c2ccc(OC)cc12.O=C(O)/C=C\\C(=O)O [TEGASEROD MALEATE]")
"Compound NOT metabolized"
>>> result("COc1ccc(C(CN(C)C)C2(O)CCCCC2)cc1 (configuration not stated)")
"Compound NOT metabolized"
>>> result("CCN(CC)CCOC(=O)C1(C2CCCCC2)CCCCC1")
"Compound NOT metabolized"
>>> result("N=C(N)NC(=O)Cc1c(Cl)cccc1Cl")
"Compound NOT metabolized"
>>> result("CCOC(=O)[C@H](CCc1ccccc1)N[C@@H](C)C(=O)N1CCC[C@H]1C(=O)O.O=C(O)/C=C\\C(=O)O [ENALAPRIL MALEATE]")
"Compound NOT metabolized"
>>> result("CC1Cc2ccccc2N1NC(=O)c1ccc(Cl)c(S(N)(=O)=O)c1 (configuration not stated) [INDAPAMIDE]")
"Compound NOT metabolized"
>>> result("CCCN(CCC)CCc1cccc2c1CC(=O)N2")
"Compound NOT metabolized"
>>> result("CN(C)CCC=C1c2ccccc2COc2ccccc21 [DOXEPIN]")
"Compound NOT metabolized"
>>> result("CC(=O)Oc1ccc(C(c2ccc(OC(C)=O)cc2)c2ccccn2)cc1")
"Compound metabolized"
>>> result("COc1ccc2c(c1)c(CC(=O)O)c(C)n2C(=O)c1ccc(Cl)cc1")
"Compound metabolized"
>>> result("CN(C)CCOC(C)(c1ccccc1)c1ccccn1.O=C(O)CCC(=O)O (configuration not stated) [DOXYLAMINE SUCCINATE]")
"Compound NOT metabolized"
>>> result("CC(C)(C)NCC(O)COc1cccc2c1CC(O)C(O)C2 (configuration not stated)")
"Compound NOT metabolized"
>>> result("COc1ccc(Cc2nccc3cc(OC)c(OC)cc23)cc1OC")
"Compound NOT metabolized"
>>> result("CN1CCN(C2=Nc3ccccc3Oc3ccc(Cl)cc32)CC1.O=C(O)CCC(=O)O [LOXAPINE SUCCINATE]")
"Compound NOT metabolized"
>>> result("CCc1oc2ccccc2c1C(=O)c1cc(Br)c(O)c(Br)c1")
"Compound NOT metabolized"
>>> result("CN(C)CCc1c[nH]c2ccc(CS(=O)(=O)N3CCCC3)cc12")
"Compound NOT metabolized"
>>> result("COC(=O)C(c1ccccc1)C1CCCCN1 (configuration not stated) [METHYLPHENIDATE]")
"Compound NOT metabolized"
>>> result("CC(=O)OCC(CCn1cnc2cnc(N)nc21)COC(C)=O")
"Compound metabolized"
>>> result("CC#C[C@]1(O)CC[C@H]2[C@@H]3CCC4=CC(=O)CCC4=C3[C@@H](c3ccc(N(C)C)cc3)C[C@@]21C")
"Compound NOT metabolized"
>>> result("CN(C)C(=O)Oc1cc(OC(=O)N(C)C)cc(C(O)CNC(C)(C)C)c1 (configuration not stated)")
"Compound NOT metabolized"
>>> result("Cc1nc(Nc2ncc(C(=O)Nc3c(C)cccc3Cl)s2)cc(N2CCN(CCO)CC2)n1 [DASATINIB ANHYDROUS]")
"Compound NOT metabolized"
>>> result("Cc1cc(C)cc(OCC2CNC(=O)O2)c1 (configuration not stated)")
"Compound metabolized"
>>> result("CCS(=O)(=O)CCn1c([N+](=O)[O-])cnc1C")
"Compound metabolized"
>>> result("C[N+]12CCC(CC1)C(OC(=O)C(O)(c1ccccc1)c1ccccc1)C2.[Br-] (configuration not stated) [CLIDINIUM BROMIDE]")
"Compound NOT metabolized"
>>> result("OC(c1cc(C(F)(F)F)nc2c(C(F)(F)F)cccc12)C1CCCCN1 (configuration not stated)")
"Compound metabolized"
>>> result("CC(=O)OCC(=O)NCCCOc1cccc(CN2CCCCC2)c1 [ROXATIDINE ACETATE]")
"Compound metabolized"
>>> result("CCOC(=O)C1=C[C@]2(CC)CCCN3CCc4c(n1c1ccccc41)[C@@H]32")
"Compound NOT metabolized"
>>> result("COc1ccc(/C=C/C(=O)Nc2ccccc2C(=O)O)cc1OC")
"Compound NOT metabolized"
>>> result("CN[C@H]1CC[C@@H](c2ccc(Cl)c(Cl)c2)c2ccccc21")
"Compound NOT metabolized"
>>> result("COC1=C(OC)C(=O)C(CCCCCCCCCCO)=C(C)C1=O")
"Compound metabolized"
>>> result("CN(CCOc1ccc(CC2SC(=O)NC2=O)cc1)c1ccccn1.O=C(O)/C=C\\C(=O)O (configuration not stated) [ROSIGLITAZONE MALEATE]")
"Compound NOT metabolized"
>>> result("CC(N)C12CC3CC(CC(C3)C1)C2 (configuration not stated)")
"Compound NOT metabolized"
>>> result("O=C1CC2(CCCC2)CC(=O)N1CCCCN1CCN(c2ncccn2)CC1")
"Compound NOT metabolized"
>>> result("CCN(C(C)=O)c1cccc(-c2ccnc3c(C#N)cnn23)c1")
"Compound metabolized"
>>> result("Nc1nnc(-c2cccc(Cl)c2Cl)c(N)n1")
"Compound NOT metabolized"

----------
# measurement_setup: human gut metagenome, 24 h, 2 µM
measure_name: Bacterial Biotransformation

>>> result("CCCN1C[C@H](CSC)C[C@@H]2c3cccc4[nH]cc(c34)C[C@H]21.CS(=O)(=O)O [PERGOLIDE MESYLATE]")
"Compound NOT metabolized"
>>> result("Cc1cc2c(s1)Nc1ccccc1N=C2N1CCN(C)CC1")
"Compound metabolized"
>>> result("CC(N)C12CC3CC(CC(C3)C1)C2 (centres undefined)")
"Compound NOT metabolized"
>>> result("CNCC[C@H](Oc1cccc2ccccc12)c1cccs1")
"Compound NOT metabolized"
>>> result("CCN(CC)CCNC(=O)c1cc(S(C)(=O)=O)ccc1OC [TIAPRIDE]")
"Compound NOT metabolized"
>>> result("CN(C)C(=O)Oc1cccc([N+](C)(C)C)c1.[Br-] [NEOSTIGMINE BROMIDE]")
"Compound NOT metabolized"
>>> result("CC(=O)OCC(CCn1cnc2cnc(N)nc21)COC(C)=O")
"Compound metabolized"
>>> result("COC(=O)C(c1ccccc1)C1CCCCN1 (centres undefined) [METHYLPHENIDATE]")
"Compound metabolized"
>>> result("C#C[C@]1(OC(C)=O)CC[C@H]2[C@@H]3CCC4=C[C@@H](OC(C)=O)CC[C@@H]4[C@H]3CC[C@@]21C [ETHYNODIOL DIACETATE]")
"Compound metabolized"

----------
# measurement_setup: human gut metagenome, 24 h, 2 µM
measure_name: Bacterial Biotransformation

>>> result("CC(C)(C)NCC(O)COc1cccc2c1CC(O)C(O)C2 (stereo not given) [NADOLOL]")
"Compound NOT metabolized"
>>> result("CC(C)NCC(O)COc1ccc(CC(N)=O)cc1 (stereo not given) [ATENOLOL]")
"Compound NOT metabolized"
>>> result("CCN(CC)CCNC(=O)c1ccc(NC(C)=O)cc1 [ACECAINIDE]")
"Compound NOT metabolized"
>>> result("CN(C/C=C/C#CC(C)(C)C)Cc1cccc2ccccc12 [TERBINAFINE]")
"Compound NOT metabolized"
>>> result("C[C@]12C=CC(=O)C=C1CC[C@@H]1[C@@H]2C(=O)C[C@@]2(C)[C@H]1CC[C@]2(O)C(=O)CO [PREDNISONE]")
"Compound metabolized"
>>> result("CN(C)CCc1c[nH]c2ccc(CS(=O)(=O)N3CCCC3)cc12 [ALMOTRIPTAN]")
"Compound NOT metabolized"
>>> result("COc1cc(C(=O)NCc2ccc(OCCN(C)C)cc2)cc(OC)c1OC [TRIMETHOBENZAMIDE]")
"Compound NOT metabolized"
>>> result("CNNCc1ccc(C(=O)NC(C)C)cc1 [PROCARBAZINE]")
"Compound NOT metabolized"
>>> result("CCCN1C[C@H](CSC)C[C@@H]2c3cccc4[nH]cc(c34)C[C@H]21.CS(=O)(=O)O [PERGOLIDE MESYLATE]")
"Compound NOT metabolized"
>>> result("CSc1ccc2c(c1)C(N1CCN(C)CC1)Cc1ccccc1S2.O=C(O)/C=C\\C(=O)O (stereo not given)")
"Compound NOT metabolized"
>>> result("C#C[C@]1(OC(C)=O)CC[C@H]2[C@@H]3CCC4=C/C(=N/O)CC[C@@H]4[C@H]3CC[C@@]21CC [NORGESTIMATE]")
"Compound metabolized"
>>> result("CN(C)CCC=C1c2ccccc2COc2ccccc21 [DOXEPIN]")
"Compound metabolized"
>>> result("CCCN(CCC)CCc1cccc2c1CC(=O)N2 [ROPINIROLE]")
"Compound NOT metabolized"
>>> result("c1ccc2[nH]c(-c3cscn3)nc2c1 [THIABENDAZOLE]")
"Compound NOT metabolized"
>>> result("COC(=O)[C@H](c1ccccc1Cl)N1CCc2sccc2C1.O=S(=O)(O)O [CLOPIDOGREL BISULFATE]")
"Compound metabolized"
>>> result("CN1CCC(OC(c2ccccc2)c2ccccc2)CC1")
"Compound metabolized"
>>> result("O=C(CCCN1CCC2(CC1)C(=O)NCN2c1ccccc1)c1ccc(F)cc1 [SPIPERONE]")
"Compound metabolized"
>>> result("CC1=C(CC(=O)O)c2cc(F)ccc2/C1=C\\c1ccc([S+](C)[O-])cc1 (stereo not given)")
"Compound metabolized"
>>> result("CC(=O)Nc1ccc(OC(C)=O)cc1 [DIACETAMATE]")
"Compound metabolized"
>>> result("CCOc1cc(CC(=O)N[C@@H](CC(C)C)c2ccccc2N2CCCCC2)ccc1C(=O)O [REPAGLINIDE]")
"Compound metabolized"
>>> result("CN1CCN(C2=Nc3ccccc3Oc3ccc(Cl)cc32)CC1.O=C(O)CCC(=O)O [LOXAPINE SUCCINATE]")
"Compound NOT metabolized"
>>> result("COc1ccc(/C=C/C(=O)Nc2ccccc2C(=O)O)cc1OC")
"Compound NOT metabolized"
>>> result("CN(C)C(=O)Oc1cc(OC(=O)N(C)C)cc(C(O)CNC(C)(C)C)c1 (stereo not given) [BAMBUTEROL]")
"Compound metabolized"
>>> result("C[C@]12CCC(=O)C=C1[C@@H]1C[C@@H]1[C@H]1[C@@H]3[C@@H]4C[C@@H]4[C@@]4(CCC(=O)O4)[C@@]3(C)CC[C@@H]12 [DROSPIRENONE]")
"Compound NOT metabolized"
>>> result("CC(=O)OCC(=O)[C@@]1(OC(C)=O)[C@@H](C)C[C@H]2[C@@H]3C[C@H](F)C4=CC(=O)C=C[C@]4(C)[C@@]3(F)[C@@H](O)C[C@@]21C [DIFLORASONE DIACETATE]")
"Compound metabolized"
>>> result("CC(=O)O[C@]1(C(C)=O)CC[C@H]2[C@@H]3C=C(C)C4=CC(=O)CC[C@]4(C)[C@H]3CC[C@@]21C [MEGESTROL ACETATE]")
"Compound metabolized"
>>> result("CC1Cc2ccccc2N1NC(=O)c1ccc(Cl)c(S(N)(=O)=O)c1 (stereo not given) [INDAPAMIDE]")
"Compound NOT metabolized"
>>> result("CCN(C)C(=O)Oc1cccc([C@H](C)N(C)C)c1.O=C(O)C(O)C(O)C(=O)O [RIVASTIGMINE TARTRATE]")
"Compound NOT metabolized"
>>> result("O=C1CC2(CCCC2)CC(=O)N1CCCCN1CCN(c2ncccn2)CC1 [BUSPIRONE]")
"Compound metabolized"
>>> result("COc1cc(NC(C)CCCN)c2ncccc2c1.O=P(O)(O)O.O=P(O)(O)O (stereo not given) [PRIMAQUINE PHOSPHATE]")
"Compound NOT metabolized"
>>> result("COC(=O)C(c1ccccc1)C1CCCCN1 (stereo not given) [METHYLPHENIDATE]")
"Compound NOT metabolized"
>>> result("CN1[C@@H]2CC[C@H]1C[C@@H](OC(=O)c1c[nH]c3ccccc13)C2 [TROPISETRON]")
"Compound NOT metabolized"
>>> result("N#Cc1ccc2c(c1)N(CCCN1CCC(O)CC1)c1ccccc1S2 [PERICIAZINE]")
"Compound NOT metabolized"
>>> result("CCCCCNC(=N)N/N=C/c1c[nH]c2ccc(OC)cc12.O=C(O)/C=C\\C(=O)O [TEGASEROD MALEATE]")
"Compound NOT metabolized"
>>> result("COc1ccnc(C[S+]([O-])c2nc3ccc(OC(F)F)cc3[nH]2)c1OC (stereo not given) [PANTOPRAZOLE]")
"Compound metabolized"

Data origin: ChEMBL document CHEMBL5724914
